tested.on: T1, human HVEM (human, UniProt Q92956 39-202, limits assumed)
T1 sequence (looked up): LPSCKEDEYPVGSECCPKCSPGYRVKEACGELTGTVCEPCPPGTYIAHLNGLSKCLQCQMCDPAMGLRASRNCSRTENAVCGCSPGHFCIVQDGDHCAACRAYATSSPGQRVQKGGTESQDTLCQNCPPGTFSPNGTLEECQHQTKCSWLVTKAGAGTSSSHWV
experiment.notes: ELISA; also: test concentration or dose not given here
measurement.name: ELISA signal
Number only, please.

Ab_087 (H5S20-59A43A) (antibody, V domains shown, also called Ab_87) VH: EVKLVESGGGLVKPGGSLKLSCAASGFTFSSYAMSWVRQTPEKRLEWVASISSGSSTYYPDSVKGRFTISRDNARNILYLQMSSLRSEDTAMYYCAKGRGYGNYLYAMDYWGQGTSVTVSS VL: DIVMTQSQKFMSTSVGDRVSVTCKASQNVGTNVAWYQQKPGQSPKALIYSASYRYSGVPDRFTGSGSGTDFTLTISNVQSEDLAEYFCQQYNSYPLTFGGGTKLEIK ... 3.22

I have this binder here, Ab_015 (H5S14-16A13A) (antibody, V domains shown, also called Ab_15) VH: EVQLVESGGGLVKPGGSLKLSCAASGFTFSDYYMYWVRQTPEKRLEWVATISDGGSYTYYPDSVKGRFTISRDNAKNNLYLQMSSLKSEDTAMYYCARDGNYYAMDYWGQGTSVTVSS VL: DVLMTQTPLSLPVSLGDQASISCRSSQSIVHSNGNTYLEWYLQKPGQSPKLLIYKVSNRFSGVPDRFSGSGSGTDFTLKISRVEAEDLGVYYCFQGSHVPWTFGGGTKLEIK , and I need its recorded ELISA signal.
0.045

I have this binder here, Ab_047 (H5S15-36A32A) (antibody, V domains shown, also called Ab_47) VH: EVQLQQSGAELVKPGASVKLSCTASGFNIKDTYMHWVKQRPEQGLEWIGRIDPANGNTKYDPKFQGKATITADTSSNTAYLQLSSLTSEDTAVYYCARPYGNYGFAYWGQGTLVTVSA VL: DIQMTQSPASLSASVGETVTITCRASGNIHNYLAWYQQKQGKSPQLLVYNAKTLADGVPSRFSGSGSGTQYSLKINSLQPEDFGSYYCQHFWSTFTFGSGTKLEIK , and I need its recorded ELISA signal.
1.19

I have this binder here, Ab_028 (H5S15-33A29A) (antibody, V domains shown, also called Ab_28) VH: QVQLKQSGPGLVQPSQSLSITCTVSGFSLTTYGVHWVRQSPGKGLEWLGVIWSGGNTDYNPAFISRLSISKDNSKSQVFFKMNTLQASDTAIYYCARRGYNKGYAMDYWGQGTSFTVSS VL: EIVLTQSPALMTASPGEKVTITCSVSSTISSRNLHWYQQKSEASPKPWIYGTSNLASGVPVRFSGSGSGTSYSLTISSMEAEDAATYYCQQWNSYPLTFGSGTKLEIK , and I need its recorded ELISA signal.
3.16

I have this binder here, Ab_078 (H5S20-45A34A) (antibody, V domains shown, also called Ab_78) VH: EVQLQQSGAELVRSGASVKLSCAASGFNIKDYYMHWVKQRPEQGLEWIGWIDPENGDTEFAPKFQGKATLTADTSSNTAYLQLSSLTSEDTAVYYCNTRTLGYWGQGTLVTVSA VL: QIVLTQSPALMSASPGEKVTMTCTASSSVSYMYWYQQKPRSSPKPWIYLTSNLASGVPARFSGSGSGTSYSLTISSMEAEDAATYYCQQWSSNPLTFGAGTKLELR , and I need its recorded ELISA signal.
3.08

# credit: patent US20240317871A1
